Record set: IC50 | UniProtKB O08775 | literature, multiple sources.

Consider the reported IC50 for these compounds:
Mol Smiles: c1cc(N2CCNCC2)ccc1Nc1nc(OCC2CCCCC2)c2cn[nH]c2n1
Measurement: > 100000 nM

Mol Smiles: COc1ccc2nc(-c3n[nH]cc3C=Cc3ccc(N)nc3)[nH]c2c1
Measurement: 636 nM

Mol Smiles: NS(=O)(=O)c1cccc(Nc2nc(Nc3cccc(S(N)(=O)=O)c3)c3cn[nH]c3n2)c1
Measurement: 1000 nM

Mol Smiles: Nc1nc(Nc2ccc([N+](=O)[O-])cc2)ccc1C(=O)c1c(F)cccc1F
Measurement: > 10000 nM

Mol Smiles: CN1CCN(c2ccc3[nH]c(-c4n[nH]c5ncc(-c6cncc(CN7CCOCC7)c6)cc45)nc3c2)CC1
Measurement: ~100 nM

// IC50 lookup, key: O=C(Cn1cnnn1)Nc1cccc2sc(Nc3ccccc3)nc12
> 100000 nM

Same lookup for Cc1cc2c(F)c(Oc3ncnc4sc(C(=O)Nc5ccc(CN6CCOCC6)cc5)c(C)c34)ccc2[nH]1 , please.
761 nM

Same lookup for O=C(Nc1cccc2sc(Nc3ccccc3)nc12)c1cc(C(F)(F)F)cc(C(F)(F)F)c1 , please.
> 100000 nM

* * *

Record set: pIC50 | VEGF-R2 (Rattus norvegicus, UniProt O08775) | literature, multiple sources.
pIC50: −log10 of the molar value.
Measurement Label: pIC50

(1) CCCCOc1cc(N)nc(N)c1C(=O)c1c(F)cccc1F
(2) c1nc2ccc(Nc3nc(Nc4ccc5ncsc5c4)c4cn[nH]c4n3)cc2s1
(3) COCc1cccc2[nH]c(-c3n[nH]c4ncc(-c5cncc(CNC(C)C)c5C)cc34)nc12
(4) CC(=O)n1ncc2c(Nc3ccc(S(=O)(=O)NCCO)cc3)nc(Nc3ccc(S(=O)(=O)NCCO)cc3)nc21
# rank above entries by pIC50 (max first, min last) Would you mind listing the labels in the order requested?
2, 3, 4, 1
(2: 6.00, 3: 5.41, 4: 4.88, 1: 4.40)

* * *

pIC50: −log10 of the molar value.
Record set: pIC50 | VEGF-R2 (Rattus norvegicus, UniProt O08775) | literature, multiple sources.
Measurement Label: pIC50

Consider the reported pIC50 for these molecules:
Mol Smiles: COc1ccc2[nH]c(-c3ccc(N)c4c3C(=O)NC4)cc2c1
Assay System: VEGF-R2 (Rattus norvegicus, UniProt O08775)
pIC50: 7.27
--
Mol Smiles: O=S(=O)(NCCO)c1ccc(Nc2nc(OCC3CCCCC3)c3cn[nH]c3n2)cc1
Assay System: VEGF-R2 (Rattus norvegicus, UniProt O08775)
pIC50: 5.63

(I) O=C(Nc1cccc2sc(Nc3ccccc3)nc12)c1c(F)cccc1F
(II) O=C(NC1CC1)c1cccc2[nH]c(-c3n[nH]c4ncc(-c5cncc6ccccc56)cc34)nc12
Which numeric pIC50 is bigger, that of I or that of II ? Let me know the label of the one you choose.
II

* * *

Record set: IC50 | VEGF-R2 (Rattus norvegicus) | literature, multiple sources.

Consider the reported IC50 for these compounds:
Compound: Nc1ccc(C(=O)c2ccco2)c(N)n1
Measurement Label: IC50
Measurement: > 100 µM
--
Compound: COc1cc2c(c(-c3cc4cc(OC)ccc4[nH]3)c1)C(=O)NC2
Measurement Label: IC50
Measurement: 0.103 µM
--
Compound: CCN(CC)S(=O)(=O)c1ccc(Nc2ccc(C(=O)c3ccccc3)c(N)n2)cc1
Measurement Label: IC50
Measurement: > 100 µM
--
Compound: O=C1NCc2cccc(-c3cc4cc(OCCCN5CCC(CO)CC5)ccc4[nH]3)c21
Measurement Label: IC50
Measurement: 0.018 µM
--
Compound: CN1CCC(NC(=O)c2cccc3[nH]c(-c4n[nH]c5ncc(-c6cncc7ccccc67)cc45)nc23)CC1
Measurement Label: IC50
Measurement: > 100 µM

// IC50 lookup, key: COc1cncc(C=Cc2c[nH]nc2-c2nc3ccc(OC)cc3[nH]2)c1
0.653 µM

Same lookup for O=C(Cc1ccccc1)Nc1cccc2sc(Nc3ccccc3)nc12 , please.
> 100 µM

* * *

Record set: IC50 | VEGF-R2 (Rattus norvegicus) | literature, multiple sources.

Consider the reported IC50 for these molecules:
Mol Smiles: CCCCOc1cc(NC(=S)Nc2ccccc2)nc(N)c1C(=O)c1c(F)cccc1F
Assay System: VEGF-R2 (Rattus norvegicus)
IC50: > 100 µM
--
Mol Smiles: O=C(Nc1cccc2sc(Nc3ccccc3)nc12)c1c(F)cc(F)cc1F
Assay System: VEGF-R2 (Rattus norvegicus)
IC50: > 100 µM

Can you look up IC50 on VEGF-R2 (Rattus norvegicus) for CNCc1cncc(-c2cnc3[nH]nc(-c4nc5ccc(C#N)cc5[nH]4)c3c2)c1 ?
> 0.01 µM

Same lookup for O=C(Nc1cccnc1)c1cccc2[nH]c(-c3n[nH]c4ncc(-c5cncc6ccccc56)cc34)nc12 , please.
~0.01 µM

Same lookup for COCCNCc1cncc(-c2cnc3[nH]nc(-c4nc5c(COC)cccc5[nH]4)c3c2)c1 , please.
1.64 µM

Same lookup for O=C(Nc1cccc2sc(Nc3ccccc3)nc12)c1cccs1 , please.
> 100 µM

* * *

Record set: IC50 | VEGF-R2 (Rattus norvegicus) | literature, multiple sources.
Measurement Label: IC50 (µM)

Consider the reported IC50 for these compounds:
Mol Smiles: CCN1CCN(CCCOc2ccc3[nH]c(-c4cccc5c4C(=O)NC5)cc3c2)CC1
IC50, µM: 0.014
//
Mol Smiles: COCc1cccc2[nH]c(-c3n[nH]c4ncc(-c5cnc6ccccc6c5)cc34)nc12
IC50, µM: 0.157
//
Mol Smiles: COCCNC(=O)c1sc2ncnc(Oc3ccc4[nH]c(C)cc4c3F)c2c1C
IC50, µM: 0.378
//
Mol Smiles: CN1CCN(c2ccc3nc(-c4n[nH]cc4C=Cc4cccnc4)[nH]c3c2)CC1
IC50, µM: 0.286
//
Mol Smiles: COCc1cccc2[nH]c(-c3n[nH]c4ncc(-c5cncc(CN(C)C)c5)cc34)nc12
IC50, µM: 1.6

(1) O=S(=O)(NCCO)c1ccc(Nc2nc(Nc3ccccc3)c3cnoc3n2)cc1
(2) COc1ccc2c(c1)cc(-c1cccc3c1C(=O)NC3=O)n2C(=O)OC(C)(C)C
Of 1 and 2 , which carries the smaller reported IC50 figure? Let me know the label of the one you choose.
2
(2: 1.52 µM, 1: 23.1 µM)

(I) c1cc2[nH]ncc2cc1Nc1nc(Nc2ccc3[nH]ncc3c2)c2cn[nH]c2n1
(II) O=S(=O)(NCCN1CCOCC1)c1ccc(Nc2nc(OCC3CCCCC3)c3cn[nH]c3n2)cc1
(III) O=C1NCc2cccc(-c3cc4cc(OCc5ccccc5)ccc4[nH]3)c21
(IV) CCNC(=O)c1cncc(C=Cc2c[nH]nc2-c2nc3ccc(OC)cc3[nH]2)c1
(V) COCc1cccc2[nH]c(-c3n[nH]c4ncc(-c5cncc(CNC(C)C)c5)cc34)nc12
Sort the 5 compounds by IC50; largest first, smallest last. Would you mind listing the labels in the order requested?
III, II, IV, V, I

(1) CCNCc1cncc(-c2cnc3[nH]nc(-c4nc5c(COC)cccc5[nH]4)c3c2)c1C
(2) NS(=O)(=O)c1ccc(Nc2nc(Nc3ccccn3)c3cn[nH]c3n2)cc1
Which numeric IC50 is bigger, that of 1 or that of 2 ? Let me know the label of the one you choose.
2
(2: 6.98 µM, 1: 4.67 µM)

* * *

pIC50: −log10 of the molar value.
Record set: pIC50 | VEGF-R2 (Rattus norvegicus, UniProt O08775) | literature, multiple sources.

Consider the reported pIC50 for these compounds:
Compound: O=C(Nc1c(F)cccc1F)Nc1cccc2sc(Nc3ccccc3)nc12
Measurement: < 4.00
//
Compound: CN1CCN(c2ccc3[nH]c(-c4n[nH]c5ncc(Br)cc45)nc3c2)CC1
Measurement: 6.62
//
Compound: Cc1cc(C)cc(C(=O)Nc2cccc3sc(Nc4ccccc4)nc23)c1
Measurement: < 4.00
//
Compound: O=C(NC1CCC(O)CC1)c1cccc2[nH]c(-c3n[nH]c4ncc(-c5cncc6ccccc56)cc34)nc12 (centres unmarked)
Measurement: 6.64
//
Compound: O=C(Nc1ccc(Cl)c(Cl)c1)Nc1cccc2nc(Nc3ccccc3)sc12
Measurement: < 4.00
//
Compound: COCc1cccc2[nH]c(-c3n[nH]c4ncc(-c5cncc(C=O)c5)cc34)nc12
Measurement: < 6.00
//
Compound: CN(C)CCN(C)C(=O)c1cccc2[nH]c(-c3n[nH]c4ncc(-c5cncc6ccccc56)cc34)nc12
Measurement: < 5.00
//
Compound: O=C(Nc1cccc2sc(Nc3ccccc3)nc12)c1cccnc1
Measurement: ≤ 4.00

Can you look up pIC50 on VEGF-R2 (Rattus norvegicus, UniProt O08775) for CCN(CC)S(=O)(=O)c1ccc(Nc2ccc(C(=O)c3ccco3)c(N)n2)cc1 ?
< 4.00

Same lookup for c1cncc(-c2cnc3[nH]nc(-c4nc5cc6c(cc5[nH]4)OCO6)c3c2)c1 , please.
~6.00

Same lookup for COCc1cccc2[nH]c(-c3n[nH]c4ncc(-c5cncc(CNC(C)(C)C)c5)cc34)nc12 , please.
7.43

Same lookup for COCc1cccc2[nH]c(-c3n[nH]c4ncc(-c5cncc(CNCCN6CCOCC6)c5)cc34)nc12 , please.
6.55

Same lookup for CCN1CCN(Cc2cccc3[nH]c(-c4n[nH]c5ncc(-c6cncc7ccccc67)cc45)nc23)CC1 , please.
6.79

Same lookup for COCc1cccc2[nH]c(-c3n[nH]c4ncc(-c5cncc(OC)c5)cc34)nc12 , please.
6.80

Same lookup for CC(C)(C)NC(=O)c1cccc2[nH]c(-c3n[nH]c4ncc(-c5cncc6ccccc56)cc34)nc12 , please.
~5.00

Same lookup for COCc1cccc2[nH]c(-c3n[nH]c4ncc(-c5cncc(CN(C)C)c5C)cc34)nc12 , please.
5.39

Same lookup for NS(=O)(=O)c1ccc(Nc2nc(Nc3ccc(S(N)(=O)=O)cc3)c3cn[nH]c3n2)cc1 , please.
5.30

Same lookup for COCc1cccc2[nH]c(-c3n[nH]c4ncc(-c5cn(S(=O)(=O)c6ccccc6)c6ccccc56)cc34)nc12 , please.
< 6.00
